Test system: Mus musculus
assayProcedure: In vitro lethality measured at 24 hours in mice following intraperitoneal administration
experimentalContext: in vivo, ip, 24 h
measurementName: LD50

A selection of reference data follows.
CCCCCCNC(=O)Oc1ccc2c(c1)[C@]1(C)CCN(CC)C1C2 (single isomer, unassigned; (-))	4 mg/kg
CCCCCCCNC(=O)Oc1ccc2c(c1)[C@]1(C)CCN(CC)C1C2 (single isomer, unassigned; (+))	18 mg/kg
CCCCCCCNC(=O)Oc1ccc2c(c1)[C@]1(C)CCN(CC)C1C2 (single isomer, unassigned; (-))	6 mg/kg
CCCCCCNC(=O)Oc1ccc2c(c1)[C@]1(C)CCN(CC)C1C2 (single isomer, unassigned; (+))	32 mg/kg
CCCCCCNC(=O)Oc1ccc2c(c1)[C@]1(C)CCN(CC)C1C2 (mixture of isomers)	5 mg/kg

Moving on to another compound below.
Q) So what does the record say about LD50 for CCCCCCCNC(=O)Oc1ccc2c(c1)[C@]1(C)CCN(CC)C1C2 (mixture of isomers) ?
A) 9 mg/kg

---

tgt: Acetylcholinesterase (Homo sapiens, UniProt P22303)
Sequence (P22303 whole entry): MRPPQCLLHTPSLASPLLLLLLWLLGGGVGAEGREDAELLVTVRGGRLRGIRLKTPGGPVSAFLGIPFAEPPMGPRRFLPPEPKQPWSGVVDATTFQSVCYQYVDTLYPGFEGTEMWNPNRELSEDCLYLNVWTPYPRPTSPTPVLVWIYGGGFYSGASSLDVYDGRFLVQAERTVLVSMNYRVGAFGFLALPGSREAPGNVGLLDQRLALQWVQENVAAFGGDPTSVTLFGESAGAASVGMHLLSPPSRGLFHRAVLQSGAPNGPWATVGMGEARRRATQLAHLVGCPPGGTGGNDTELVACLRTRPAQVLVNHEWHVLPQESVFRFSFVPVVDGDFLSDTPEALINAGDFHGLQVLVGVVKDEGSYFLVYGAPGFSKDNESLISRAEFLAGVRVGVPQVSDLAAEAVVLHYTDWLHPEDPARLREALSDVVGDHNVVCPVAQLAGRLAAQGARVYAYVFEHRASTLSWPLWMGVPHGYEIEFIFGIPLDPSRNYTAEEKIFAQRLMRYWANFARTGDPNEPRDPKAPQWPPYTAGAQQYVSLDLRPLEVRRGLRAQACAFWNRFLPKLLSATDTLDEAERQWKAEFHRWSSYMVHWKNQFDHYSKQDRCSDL
assayProcedure: In vitro inhibitory activity against human AchE (Acetylcholinesterase)
Each item that follows carries a reported pIC50.
pIC50 (log units): -log10 of the concentration in mol/L.

CCCNC(=O)Oc1ccc2c(c1)[C@@H]1CCN(CC)C1C2 (stereo partly drawn)	5.66

Q) So what does the record say about pIC50 for CCCCCCNC(=O)Oc1ccc2c(c1)[C@]1(C)CCN(CC)C1C2 (mixture of isomers) ?
A) 7.35

Q) So what does the record say about pIC50 for CCCCCCCNC(=O)Oc1ccc2c(c1)[C@]1(C)CCN(CC)C1C2 (single isomer, unassigned; (-)) ?
A) 7.44

Q) So what does the record say about pIC50 for CCCCCCNC(=O)Oc1ccc2c(c1)[C@]1(C)CCN(CC)C1C2 (single isomer, unassigned; (-)) ?
A) 7.70

Q) So what does the record say about pIC50 for CCCCCCNC(=O)Oc1ccc2c(c1)[C@@H]1CCN(CCC)C1C2 (stereo in doubt; 1z) ?
A) 6.29

Q) So what does the record say about pIC50 for CCCCCCCNC(=O)Oc1ccc2c(c1)[C@]1(C)CCN(C)C1C2 (stereo partly drawn) ?
A) 6.94

Q) So what does the record say about pIC50 for CCCCCCCNC(=O)Oc1ccc2c(c1)[C@]1(C)CCN(CC)C1C2 (single isomer, unassigned; (+)) ?
A) 6.68

Q) So what does the record say about pIC50 for CCCCCCNC(=O)Oc1ccc2c(c1)[C@@H]1CCN(CCC)C1C2 (stereo in doubt; 1y) ?
A) 6.26

---

Each item that follows carries a reported IC50.
tgt: Acetylcholinesterase (Homo sapiens)
assayProcedure: In vitro inhibitory activity against human Acetylcholinesterase
Could you give me the number in nM? Just the number is fine.

A selection of reference data follows.
CCCCCCCNC(=O)Oc1ccc2c(c1)[C@]1(C)CCN(Cc3ccccc3)C1C2 (stereo partly specified)	506
CCCCCCCNC(=O)Oc1ccc2c(c1)[C@]1(C)CCN(CCC)C1C2 (stereo partly specified)	93

Q) So what does the record say about IC50 for CCCCCCNC(=O)Oc1ccc2c(c1)[C@]1(C)CCN(CCC)C1C2.Cc1ccc(C(=O)OC(C(=O)O)C(OC(=O)c2ccc(C)cc2)C(=O)O)cc1.O (mixture of isomers) ?
A) 62

Q) So what does the record say about IC50 for CCCCNC(=O)Oc1ccc2c(c1)[C@]1(C)CCN(CC)C1C2 (mixture of isomers) ?
A) 90

Q) So what does the record say about IC50 for CCN1CC[C@@]2(C)c3cc(OC(=O)NC)ccc3CC12 (mixture of isomers) ?
A) 38

Q) So what does the record say about IC50 for CCCCCCCNC(=O)Oc1ccc2c(c1)[C@@H]1CCN(CC)C1C2 (mixture of isomers) ?
A) 381
